Consider the following compounds; for each one, report its DO induced.
Assay: Photochromic properties of the compound in the (co)polymer matrix under xenon lamp exposure
Assay type: physicochemical
Conditions: xenon lamp (40.000 lux); same conditions as compound (I)
Keep the answer to the number alone.

Enquiry: Could you share which DO induced value was measured for COc1ccc(C2(c3ccc(C(F)(F)F)cc3)C=Cc3c(cc(N4CCOCC4)c4ccccc34)O2)cc1 (stereo not shown) [Compound C2, reference compound] ?
Return: 1.60

Enquiry: Consider next the compound COc1ccc(C2(c3ccccc3)C=Cc3c(cc(N4CCCCC4)c4ccccc34)O2)cc1 (stereo not shown) [Compound C3, reference compound] in the same way.
Return: 1.77

Enquiry: Consider next the compound COc1ccc(C2(c3ccc(OC)cc3)C=Cc3c(cc(N4CCOCC4)c4ccccc34)O2)cc1 [Compound C1, reference compound] in the same way.
Return: 1.37

Enquiry: Consider next the compound COc1ccc(C2(c3ccccc3)C=Cc3c(cc(N4CCOCC4)c4ccccc34)O2)cc1 (stereo not shown) in the same way.
Return: 1.65
